test system: CMK; experiment: CellTox Green cytotoxicity fluorescence relative to DMSO vehicle (fold of vehicle RFU); higher = more cell death (loss of membrane integrity), active = 2 or more; settings: 1 µM; 24 h
Please note: Fulfilled applies when CellTox Green cytotoxicity fluorescence is 1 or greater, and Not fulfilled applies otherwise.

Is the recorded value of CellTox Green cytotoxicity fluorescence equal to or greater than 1 for this compound? CC(=O)N1c2ccc(-c3ccc(C(=O)O)cc3)cc2[C@H](Nc2ccc(Cl)cc2)C[C@@H]1C
Fulfilled

Is the recorded value of CellTox Green cytotoxicity fluorescence equal to or greater than 1 for this compound? CC(C)c1ccccc1Cc1cc(C(=O)Nc2ccc(S(=O)(=O)c3ccccc3C(C)(C)C)cc2)c(O)c(O)c1O
Not fulfilled

Is the recorded value of CellTox Green cytotoxicity fluorescence equal to or greater than 1 for this compound? CC1(C)CC[C@]2(NC(=O)C(C)(F)F)CC[C@]3(C)[C@H](C(=O)C=C4[C@@]5(C)C=C(C#N)C(=O)C(C)(C)[C@@H]5CC[C@]43C)[C@@H]2C1 [Omaveloxolone]
Fulfilled

Is the recorded value of CellTox Green cytotoxicity fluorescence equal to or greater than 1 for this compound? CN(C)CC[C@H](CSc1ccccc1)Nc1ccc(S(=O)(=O)NC(=O)c2ccc(N3CCN(Cc4ccccc4-c4ccc(Cl)cc4)CC3)cc2)cc1[N+](=O)[O-]
Fulfilled

Is the recorded value of CellTox Green cytotoxicity fluorescence equal to or greater than 1 for this compound? CN1CCN(Cc2ccc(Nc3ncc(Cl)c(Nc4ccccc4S(=O)(=O)N(C)C)n3)cc2)CC1
Fulfilled

* * *

system: CMK; assay: CellTox Green cytotoxicity fluorescence relative to DMSO vehicle (fold of vehicle RFU); higher = more cell death (loss of membrane integrity), active = 2 or more; settings: 0.1 µM; 24 h
Exercise: for every item that follows, state its recorded CellTox Green cytotoxicity fluorescence.

For FC(F)(F)c1ccc(CNc2ccc(Cc3c[nH]c4ncc(Cl)cc34)cn2)cn1 , write its CellTox Green cytotoxicity fluorescence.
0.99 (inactive)

For CN(C)CCCCC(=O)Nc1ccc(NC(=S)NC(=O)c2ccc(C(C)(C)C)cc2)cc1 , write its CellTox Green cytotoxicity fluorescence.
1 (inactive)

For CCCCC(C=O)NC(=O)C(CC(C)C)NC(=O)C(CC(C)C)NC(C)=O (centres undefined) , write its CellTox Green cytotoxicity fluorescence.
0.984 (inactive)

For O=C1NC(=NCc2cccs2)S/C1=C\c1ccc2ncccc2c1 , write its CellTox Green cytotoxicity fluorescence.
0.996 (inactive)

For CC(C)c1ccccc1Cc1cc(C(=O)Nc2ccc(S(=O)(=O)c3ccccc3C(C)(C)C)cc2)c(O)c(O)c1O , write its CellTox Green cytotoxicity fluorescence.
0.932 (inactive)

For Fc1ccc(CNc2ncnc3ccc(F)cc23)cc1 , write its CellTox Green cytotoxicity fluorescence.
0.971 (inactive)

For C[C@H]1Oc2cc(cnc2N)-c2c(nn(C)c2C#N)CN(C)C(=O)c2ccc(F)cc21 , write its CellTox Green cytotoxicity fluorescence.
0.951 (inactive)

For CC(C)(C)C[C@@H]1N[C@@H](C(=O)N[C@H]2CC[C@H](O)CC2)[C@H](c2cccc(Cl)c2F)[C@]12C(=O)Nc1cc(Cl)ccc12 , write its CellTox Green cytotoxicity fluorescence.
0.963 (inactive)

For CCN(CC)CCNC(=O)c1c(C)[nH]c(/C=C2\C(=O)Nc3ccc(F)cc32)c1C , write its CellTox Green cytotoxicity fluorescence.
1 (inactive)

Numbers sourced from the supplement of paper PMC7595190.
